FYI, the data here is from patent US6031073A.

biological target: anticardiolipin antibody (serum of patient ACA-6701); test: competitive ELISA, binding of patient ACA-6701 serum to cardiolipin/β2-GPI coated plate; conditions: amount of peptide that inhibited the human serum's binding by 50%; serum of patient ACA-6701 (GPL score 102)
Numbered stars: 1 amine (or outer) side, 2 acyl side, 3 side chain; on linkers, the order of the positions; unused ones are H or OH. Bridge positions count the residues as written; N and C are the ends. Square brackets hold non-standard residues; d marks the D form. Peptide text beside a SMILES is read from it. Abu(4-yl) = O=C([C@H](CC[*:3])N[*:1])[*:2]; hCys = N[C@@H](CCS)C(=O)O

# compound, study system, IC50
measured = [
    ("CC(C)C[C@@H]1NC(=O)[C@H](CCCCN)NC(=O)CNC(=O)[C@H](CC(C)C)NC(=O)[C@H](C(C)C)NC(=O)CNC(=O)[C@H](CC(C)C)NC(=O)[C@@H](N)CSCC[C@@H](C(N)=O)NC1=O [G3-METE] (H-CLGVLGKL[Abu(4-yl)]-NH2; thioether 1-9)", "anticardiolipin antibody (serum of patient ACA-6701)", "36 µM"),
    ("CC(C)C[C@@H]1NC(=O)[C@@H](NC(=O)[C@@H]2CCCN2C(=O)CN)CSCC[C@@H](C(=O)N2CCC[C@H]2C(=O)NCC(=O)O)NC(=O)[C@H](CC(C)C)NC(=O)[C@H](CCCCN)NC(=O)CNC(=O)[C@H](CC(C)C)NC(=O)[C@H](C(C)C)NC(=O)CNC1=O (single isomer, unassigned)", "anticardiolipin antibody (serum of patient ACA-6701)", "486 µM"),
    ("CC(C)C[C@@H]1NC(=O)C(NC(=O)[C@@H]2CCCN2C(=O)CNC(=O)[C@H](C)N)CSC[C@@H](C(=O)N2CCC[C@H]2C(=O)NCC(=O)O)NC(=O)[C@H](CC(C)C)NC(=O)[C@H](CCCCN)NC(=O)CNC(=O)[C@H](CC(C)C)NC(=O)[C@H](C(C)C)NC(=O)CNC1=O (some centres unmarked)", "anticardiolipin antibody (serum of patient ACA-6701)", "~1050 µM"),
    ("CC(C)C[C@@H]1NC(=O)C(N)CSC[C@@H](C(N)=O)NC(=O)[C@H](CC(C)C)NC(=O)[C@H](CCCCN)NC(=O)CNC(=O)[C@H](CC(C)C)NC(=O)[C@H](C(C)C)NC(=O)CNC1=O (some centres unmarked)", "anticardiolipin antibody (serum of patient ACA-6701)", "57 µM"),
    ("CC(C)C[C@@H]1NC(=O)[C@H](CCCCN)NC(=O)CNC(=O)[C@H](CC(C)C)NC(=O)[C@H](C(C)C)NC(=O)CNC(=O)[C@H](CC(C)C)NC(=O)[C@@H](N)CCSCC[C@@H](C(N)=O)NC1=O [G3-EETE] (H-[hCys]LGVLGKL[Abu(4-yl)]-NH2; thioether 1-9)", "anticardiolipin antibody (serum of patient ACA-6701)", "40 µM"),
    ("CC(C)C[C@@H]1NC(=O)[C@H](CCCCN)NC(=O)CNC(=O)[C@H](CC(C)C)NC(=O)[C@H](C(C)C)NC(=O)CNC(=O)[C@H](CC(C)C)NC(=O)[C@H](NC(=O)[C@@H]2CCCN2C(=O)CN)CSCC[C@@H](C(=O)N2CCC[C@H]2C(=O)NCC(=O)O)NC1=O (single isomer, unassigned)", "anticardiolipin antibody (serum of patient ACA-6701)", "436 µM"),
    ("CC(C)C[C@@H]1NC(=O)C(NC(=O)[C@@H]2CCCN2C(=O)CN)CSC[C@@H](C(=O)N2CCC[C@H]2C(=O)NCC(=O)O)NC(=O)[C@H](CC(C)C)NC(=O)[C@H](CCCCN)NC(=O)CNC(=O)[C@H](CC(C)C)NC(=O)[C@H](C(C)C)NC(=O)CNC1=O (some centres unmarked)", "anticardiolipin antibody (serum of patient ACA-6701)", "> 678 µM"),
    ("CC(C)C[C@@H]1NC(=O)[C@H](CCCCN)NC(=O)CNC(=O)[C@H](CC(C)C)NC(=O)[C@H](C(C)C)NC(=O)CNC(=O)[C@H](CC(C)C)NC(=O)[C@@H](N)CCSC[C@@H](C(N)=O)NC1=O [G3-EMTE] (H-[Abu(4-yl)]LGVLGKLC-NH2; thioether 1-9)", "anticardiolipin antibody (serum of patient ACA-6701)", "34 µM"),
]
